# credit: patent US20180186742A1

- System: Zymoseptoria tritici
- experimental_protocol: Leaf blotch of wheat (SEPTTR), disease control on wheat seedlings
- Type: in vivo
- particulars: 72 h, high volume application at 100 ppm, 3 Day Curative, read-out: SEPTTR disease control, 3DC, HV activity
endpoint_name: pest or weed control at 100 ppm

Use these answered entries as a reference point.
[
  {
    "molecule": "COc1ccnc(C(=O)N[C@@H](C)C(=O)O[C@@H](C)[C@H](c2ccc(F)cc2C)C(C)C)c1O",
    "pest or weed control at 100 ppm": "> 80%"
  },
  {
    "molecule": "CCC(C)[C@H](c1ccc(F)cc1C)[C@H](C)OC(=O)[C@H](C)NC(=O)c1nccc(OC)c1O (stereo partly shown)",
    "pest or weed control at 100 ppm": "< 80%"
  },
  {
    "molecule": "COc1ccnc(C(=O)N[C@@H](C)C(=O)O[C@@H](C)[C@@H](c2ccc(Cl)cc2Cl)C(C)C)c1O",
    "pest or weed control at 100 ppm": "< 80%"
  }
]

For record COc1ccnc(C(=O)N[C@@H](C)C(=O)O[C@@H](C)[C@H](c2cc(C)ccc2C)C(C)C)c1O the listed pest or weed control at 100 ppm is < 80%

Entry COc1ccnc(C(=O)N[C@@H](C)C(=O)O[C@@H](C)[C@@H](c2ccc(F)cc2C)C2CCCCC2)c1O — recorded pest or weed control at 100 ppm = > 80%

The recorded pest or weed control at 100 ppm for CCC(CC)[C@H](c1ccc(F)cc1C)[C@H](C)OC(=O)[C@H](C)NC(=O)c1nccc(OC)c1O is > 80%

Record CC[C@H](C)[C@H](NC(=O)c1nccc(OC)c1O)C(=O)O[C@@H](C)[C@H](c1ccc(F)cc1C)C(C)C , field pest or weed control at 100 ppm: < 80%

---

Parameter pest or weed control at 121.5 g/ha: see the listing below.
- Test system: Puccinia triticina
- experimental_protocol: Wheat brown rust (PUCCRT), disease control on wheat seedlings
- Assay type: in vivo
- particulars: 72 h, low volume application at 121.5 g/H, 3 Day Curative, read-out: PUCCRT disease control, 3DC, LV activity
- Description: Technical grades of materials were dissolved in acetone, which were then mixed with nine volumes of water containing 110 ppm Triton X-100. The fungicide solutions were applied onto wheat seedlings using an automated booth sprayer to run-off. All sprayed plants were allowed to air dry prior to further handling. All fungicides were evaluated using the aforementioned method for their activity vs. all target diseases, unless stated otherwise. […]

Entry COc1ccnc(C(=O)N[C@@H](C)C(=O)O[C@@H](C)[C@H](c2cccc(C)c2C)C(C)C)c1OC(C)=O , pest or weed control at 121.5 g/ha reported as > 80%

molecule COc1ccnc(C(=O)N[C@@H](C)C(=O)O[C@@H](C)[C@H](c2ccc(C)cc2)C2CC2)c1OCOC(C)=O , pest or weed control at 121.5 g/ha observed: > 80%

Noted for CCC(C)[C@H](c1ccc(C)cc1C)[C@H](C)OC(=O)[C@H](C)NC(=O)c1nccc(OC)c1OCOC(C)=O (stereo partly shown) : its pest or weed control at 121.5 g/ha reads < 80%

// sample COc1ccnc(C(=O)N[C@@H](C)C(=O)O[C@@H](C)[C@@H](c2ccc(C)cc2C)C2CCCC2)c1OCOC(C)=O , its pest or weed control at 121.5 g/ha was < 0%

The reported pest or weed control at 121.5 g/ha of the molecule COc1ccnc(C(=O)N[C@@H](C)C(=O)O[C@@H](C)[C@@H](c2ccc(C)cc2C)C(C)C)c1OCOC(C)=O was < 80%

Reported pest or weed control at 121.5 g/ha for COc1ccc([C@H](C(C)C)[C@H](C)OC(=O)[C@H](C)NC(=O)c2nccc(OC)c2OC(C)=O)c(C)c1 was > 80%

Memo: COc1cc(F)ccc1[C@@H](C1CCCC1)[C@H](C)OC(=O)[C@H](C)NC(=O)c1nccc(OC)c1OC(C)=O , reported pest or weed control at 121.5 g/ha: < 80%
